# SYSTEM: UPR counterscreen luciferase reporter, luminescence
# ASSAY PROTOCOL: luciferase reporter activation, UPR counterscreen line – cell-based, luminescence, counter-screen for adaptive UPR activator project, dose response (AID 489027)
Calls of active or inactive are those of the source. How the calls were made is not given here.
Classes used: yes = active, no = inactive

- MOLECULE: "COc1ccc2[nH]c3nc(SCc4nnc(-c5ccc(C)cc5)o4)nnc3c2c1"
  LABEL CLASS: "yes"
- MOLECULE: "CCN(CC)c1ccc(N=Cc2c(O)n(-c3ccc(Cl)cc3)c(=O)[nH]c2=O)cc1"
  LABEL CLASS: "yes"
- MOLECULE: "COc1cc(SC#N)ccc1N=Cc1c(C)[nH]n(-c2ccc(C)c(C)c2)c1=O"
  LABEL CLASS: "yes"
- MOLECULE: "O=c1cc(CN2CCN(c3ccccc3)CC2)c2cc(O)c(-c3ccccc3)cc2o1"
  LABEL CLASS: "yes"
- MOLECULE: "CC1=C(CC/C(C)=N/NC(N)=S)C(C)(C)CCC1"
  LABEL CLASS: "yes"
- MOLECULE: "Cc1ccc(-c2nnn(CC(=O)Nc3ccc(S(=O)(=O)N4CCC(C)CC4)cc3)n2)cc1"
  LABEL CLASS: "no"
- MOLECULE: "Cc1nn(Cc2ccccc2)c(C)c1NC(=O)CSc1nc(C2CC2)nc2c1cnn2-c1ccccc1"
  LABEL CLASS: "no"
- MOLECULE: "Cc1ccc(NC(=O)c2cc(S(=O)(=O)N(C)C)ccc2N2CCCC2)cc1F"
  LABEL CLASS: "no"
- MOLECULE: "CCOC(=O)c1c(NC(=O)Cc2cccs2)sc(C(=O)NC2CCCCC2)c1C"
  LABEL CLASS: "no"
- MOLECULE: "CC1CCN(Cc2c(C(=O)N/N=C/c3ccc(C(F)(F)F)cc3)nnn2-c2nonc2N)CC1"
  LABEL CLASS: "no"
- MOLECULE: "OC(CNCC1CCCO1)Cn1c2ccc(Cl)cc2c2cc(Cl)ccc21 (stereo not given)"
  LABEL CLASS: "no"
- MOLECULE: "N#C/C(=C\\c1ccc(OCc2ccccc2)cc1)C(=O)Nc1nc2c(s1)CCN(Cc1ccccc1)C2"
  LABEL CLASS: "yes"
- MOLECULE: "Cc1ccc(-c2nnn(CC(=O)N(Cc3cccs3)C(C(=O)NC3CCCCC3)c3ccco3)n2)o1 (stereo not given)"
  LABEL CLASS: "no"
- MOLECULE: "COc1ccc(CCn2c(=S)[nH]c3cc(C(=O)NCc4ccco4)ccc3c2=O)cc1OC"
  LABEL CLASS: "no"
- MOLECULE: "COc1ccc2nc(C)cc(SCC(=O)N/N=C/c3cccc4ccccc34)c2c1"
  LABEL CLASS: "no"
- MOLECULE: "O=c1[nH]c(-c2ccc(-c3cccc(Cl)c3)o2)nc2ccccc12"
  LABEL CLASS: "yes"
- MOLECULE: "CCOc1ccc(S(=O)(=O)Nc2cccc(C(=O)NCC3(N4CCCCC4)CCCCC3)c2)cc1"
  LABEL CLASS: "no"
- MOLECULE: "CCOc1ccc(-n2c(C)cc(C(=O)CCl)c2C)cc1"
  LABEL CLASS: "yes"
- MOLECULE: "COc1ccc(-c2cc(C(F)F)n3ncc(C(=O)N4CCc5ccccc5C4)c3n2)cc1"
  LABEL CLASS: "no"
- MOLECULE: "O=C(/C=C/c1ccc(Cl)cc1)NC(=S)Nc1ccc(N2CCOCC2)c(Cl)c1"
  LABEL CLASS: "no"

###

# SYSTEM: UPR counterscreen luciferase reporter, luminescence
# ASSAY PROTOCOL: luciferase reporter activation, UPR counterscreen line – cell-based, luminescence, counter-screen for adaptive UPR activator project, dose response (AID 489027)
The source made the active and inactive calls. The rule behind the calls is not given here.
Possible outcomes: label 1 for active, label 0 for inactive

- INPUT SMILES: "O=C(CSCc1ccc(Cl)cc1)Nc1ccc(-c2nnc(-c3ccccc3)o2)cc1"
  LABEL CLASS: "label 0"
- INPUT SMILES: "CN(C)CCCN(C(=O)c1cc(-c2cccs2)nc2ccccc12)c1nc2ccc(F)cc2s1"
  LABEL CLASS: "label 1"
- INPUT SMILES: "CCOC(=O)c1c2ccc(OCC(=O)N/N=C/c3ccc(C)cc3)cc2n2ccccc12"
  LABEL CLASS: "label 1"
- INPUT SMILES: "Cc1ccc2c(c1)C(c1ccc(N3CCOCC3)cc1)=NNC(c1cccs1)=N2"
  LABEL CLASS: "label 0"
- INPUT SMILES: "COc1ccccc1Nc1nnc(SCC(=O)NC(=O)Nc2ccc3c(c2)OCCO3)s1"
  LABEL CLASS: "label 0"

###

# SYSTEM: UPR counterscreen luciferase reporter, luminescence
# ASSAY PROTOCOL: luciferase reporter activation, UPR counterscreen line – cell-based, luminescence, counter-screen for adaptive UPR activator project, dose response (AID 489027)
Calls of active or inactive are those of the source. No rule for the calls is given here.

- COMPOUND: "COC(=O)c1ccc(COc2ccccc2/C=C(\\C#N)C(=O)Nc2c(C)cccc2C)cc1"
  EC50: "17.4 µM"
- COMPOUND: "CCN(CC)c1ccc(/C=C/[N+](=O)[O-])cc1"
  EC50: "11.3 µM"
- COMPOUND: "COc1ccc(Cn2c(SCc3cc(C)ccc3C)nc3cc(OC)c(OC)cc3c2=N)cc1"
  EC50: "> 80 µM (inactive)"
- COMPOUND: "Cc1ccc(Nc2nc3ccc(Cl)cc3n3cnnc23)cc1F"
  EC50: "inactive"
- COMPOUND: "Cn1nc(C(F)(F)F)c(/C=N/OC(=O)c2ccccc2)c1SCc1ccccc1Cl"
  EC50: "inactive"
- COMPOUND: "COc1cccc2sc(N3CCN(c4nc5ccccc5s4)CC3)nc12"
  EC50: "16.8 µM"
- COMPOUND: "Cc1cccc2c1Sc1ccc(Cl)cc1CC2N1CCNCC1 (stereo not given)"
  EC50: "> 80 µM (inactive)"
- COMPOUND: "Cc1ccc(Cc2cnc(NC(=O)/C(C#N)=C/c3ccc(-c4cccc([N+](=O)[O-])c4)o3)s2)cc1"
  EC50: "12 µM"
- COMPOUND: "Cc1cccc(NC(=O)c2nc[nH]c2C(=O)Nc2ccccc2[N+](=O)[O-])c1"
  EC50: "> 80 µM (inactive)"
- COMPOUND: "C#CCn1c(=NC(=O)c2ccc(Br)s2)sc2cccc(OC)c21"
  EC50: "> 80 µM (inactive)"
- COMPOUND: "COc1ccc(-c2nn(-c3ccccc3)cc2/C=N/N2C(=O)CSC2=S)cc1"
  EC50: "> 80 µM (inactive)"
- COMPOUND: "COC(=O)Cc1csc(/N=C/c2c(O)n(-c3cccc(C(F)(F)F)c3)c(=O)c3ccccc23)n1"
  EC50: "> 80 µM (inactive)"
- COMPOUND: "Cc1ccc2nc(Nc3nc(-c4ccccc4)cc(=O)[nH]3)nc(C)c2c1"
  EC50: "> 80 µM (inactive)"
- COMPOUND: "COc1ccc2cc(C)c3nnc(SCC(=O)Nc4nc(-c5ccc(F)cc5)cs4)n3c2c1"
  EC50: "13 µM"
- COMPOUND: "c1cc(SC2CCCCC2)cc(-c2nc3cnccn3c2NC2CCCCC2)c1"
  EC50: "12.6 µM"
- COMPOUND: "CC1(C)C=Cc2c(c3c(c4c(=O)c(-c5ccc(O)cc5)coc24)OC(C)(C)CC3)O1"
  EC50: "13.1 µM"
- COMPOUND: "COc1ccc(C(=O)/C=C/c2cccs2)c(OC(=O)c2cccc([N+](=O)[O-])c2)c1"
  EC50: "inactive"
- COMPOUND: "Cc1cccc2cc(C(c3nnnn3Cc3ccccc3)N3CCCc4ccccc43)c(=O)[nH]c12 (stereo not given)"
  EC50: "inactive"
- COMPOUND: "CCOC(=O)c1sc(-c2ccccc2)cc1NC(=O)Nc1ccc([N+](=O)[O-])cc1"
  EC50: "16.2 µM"
- COMPOUND: "CCc1cc2c(=O)c(-c3cnn(-c4ccccc4)c3)c(C)oc2cc1OCC(=O)Nc1cccc(C)c1"
  EC50: "11.5 µM"

###

# SYSTEM: UPR counterscreen luciferase reporter, luminescence
# ASSAY PROTOCOL: luciferase reporter activation, UPR counterscreen line – cell-based, luminescence, counter-screen for adaptive UPR activator project, dose response (AID 489027)
Activity calls are given as the source filed them. How the calls were made is not given here.
EC50 reference

- COMPOUND: "Cc1ccc(-n2nc3c(N4CCC(C(=O)NCCc5cccs5)CC4)nnc(C)c3c2C)cc1"
  EC50: "> 80 µM (inactive)"
- COMPOUND: "O=C(NC(=S)Nc1cc(-c2nc3ccccc3[nH]2)ccc1Cl)c1ccc2c(c1)OCO2"
  EC50: "8.21 µM"
- COMPOUND: "O=C(NCC1CC1)c1cccc2c1C(=O)c1ccc(-c3ccc(OC(F)(F)F)cc3)cc1S2(=O)=O"
  EC50: "> 80 µM (inactive)"
- COMPOUND: "NS(=O)(=O)c1ccc(N/N=C2/CCCCC2C2CCCCC2)c([N+](=O)[O-])c1 (stereo not given)"
  EC50: "15 µM"
- COMPOUND: "CC(C)(C)C(=O)NC(=S)NNC(=O)C(c1ccccc1)c1ccccc1"
  EC50: "2.14 µM"
- COMPOUND: "NCCc1c(-c2ccccc2)n(-c2ccccc2)c2ccccc12"
  EC50: "17.9 µM"
- COMPOUND: "COc1ccccc1-c1sc2cc3c(cc2c1-c1ccc(OCCN2CCCCC2)cc1)OCO3"
  EC50: "17.7 µM"
- COMPOUND: "N#C/C(=C\\c1ccc(N2CCCC2)c([N+](=O)[O-])c1)c1nc2ccccc2[nH]1"
  EC50: "> 80 µM (inactive)"
- COMPOUND: "CCc1ccc(-c2nc(CN3CCC(C(=O)NCCN(CC)c4ccccc4)CC3)c(C)o2)cc1"
  EC50: "> 80 µM (inactive)"
